The reported measurements were obtained from patent US4927832A.

pIC50: −log10 of the molar value.
For K opiated receptor (Cavia porcellus), measured pIC50 is reported for the entries below.
quantity: pIC50

{"columns": ["compound", "quantity", "observedValue"],
 "data": [
  ["O=C(Cc1ccc(Cl)c(Cl)c1)N1CCCC2CCC(N3CCCC3)C21 (centres unmarked) [Example 3]", "pIC50", 8.05],
  ["O=C(Cc1ccc(Cl)c(Cl)c1)N1CCCC2CCC(N3CCCC3)C21 (mixture of isomers) [Example 1]", "pIC50", 8.40]
]}
